# tgt: CD33 (Sino Biological, Cat #12238-H08H) (UniProt P20138 18-259)
# Sequence (P20138 18-259 limits assumed): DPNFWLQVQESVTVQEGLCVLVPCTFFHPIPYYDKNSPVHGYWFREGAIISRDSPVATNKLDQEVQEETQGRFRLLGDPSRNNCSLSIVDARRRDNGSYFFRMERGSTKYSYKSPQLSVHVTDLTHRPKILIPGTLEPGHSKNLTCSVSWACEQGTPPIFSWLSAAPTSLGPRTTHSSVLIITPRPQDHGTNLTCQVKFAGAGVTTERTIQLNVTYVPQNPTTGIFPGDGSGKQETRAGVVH
# test summary: BLI, IgG captured on anti-human Fc sensor, 50 nM CD33, pH 7.4 vs pH 5.4
property name: binding result

* MYT1217 (antibody, V domains shown, IgG; IMGN779 VH variant #5 (T30H)) VH: QVQLQQPGAEVVKPGASVKMSCKASGYTFHSYYIHWIKQTPGQGLEWVGVIYPGNDDISYNQKFQGKATLTADKSSTTAYMQLSSLTSEDSAVYYCAREVRLRYFDVWGQGTTVTVSS VL: EIVLTQSPGSLAVSPGERVTMSCKSSQSVFFSSSQKNYLAWYQQIPGQSPRLLIYWASTRESGVPDRFTGSGSGTDFTLTISSVQPEDLAIYYCHQYLSSRTFGQGTKLEIK | binds
* MYT1590 (antibody, V domains shown, IgG; gemtuzumab VL variant #1 (R24H)) VH: EVQLVQSGAEVKKPGSSVKVSCKASGYTITDSNIHWVRQAPGQSLEWIGYIYPYNGGTDYNQKFKNRATLTVDNPTNTAYMELSSLRSEDTDFYYCVNGNPWLAYWGQGTLVTVSS VL: DIQLTQSPSTLSASVGDRVTITCHASESLDNYGIRFLTWFQQKPGKAPKLLMYAASNQGSGVPSRFSGSGSGTEFTLTISSLQPDDFATYYCQQTKEVPWSFGQGTKVEVK | binds
